# System: OVCAR-4 ovarian
# Assay Protocol: NCI-60 one-dose screen, 48 h (100 = growth as untreated, 0 = no growth, -100 = all killed)
# Measurement Parameters: 10 µM unless noted
About 83,000 compounds went through this panel and 20% of them were active in at least one assay; those are over-represented in the sample as a whole.
# strict inequality: growth < 60% yields true (1), everything else yields false (0)

CCCNC(=O)Oc1ccc(/C(=C(\C)c2ccccc2)c2ccc(OCCCN(C)C)cc2)cc1	false (0)
COc1ccc(NC(=O)c2cc(NCc3cc(O)ccc3O)ccc2O)cc1	false (0)
Cc1cccc(-c2cn3ccnc3c(-c3ccc4ncn(Cc5ccccc5)c4c3)n2)c1	false (0)
COc1cc(NC(C)CCCNC(=O)CCC(=O)NCCCNCCCCCCCCNCCCNC(=O)CCC(=O)NCCCC(C)Nc2cc(OC)cc3cccnc23)c2ncccc2c1 (stereo not drawn)	true (1)
C=C1C(=O)O[C@H]2[C@H]1CC/C(COC(=O)NCc1c[nH]c3ccc(Cl)cc13)=C\CC[C@@]1(C)O[C@@H]21	true (1)
COc1ccc(/C=C/c2nc(Nc3ccc(S(=O)(=O)NC(C)=O)cc3)c3ccccc3n2)cc1	false (0)

----------
# Tested on: SNB-19 CNS
# Assay Protocol: NCI-60 one-dose screen, 48 h (100 = growth as untreated, 0 = no growth, -100 = all killed)
# Measurement Parameters: 10 µM unless noted
# Protocol: Growth inhibition of the SNB-19 human tumor cell line is measured as a screen for anti-cancer activity. Cells are grown in 96 well plates and exposed to the test compound for 48 hours. Compounds are tested at a single concentration, which is 10^-5 M for most compounds. The reported endpoint is percent growth (GI% or GIPRCNT), where numbers from 0 - 100% represent growth inhibition, and numbers from -100% - 0 represent cell death. For example, a value of 40 represents 60% growth inhibition. […]
About 83,000 compounds went through this panel and 20% of them were active in at least one assay; those are over-represented in the sample as a whole.
For each record, check the reported growth: if it is below 20% write label 1, else write label 0.

COc1cc2c(=O)n(CCN)c3c4cc5c(cc4ccc3c2cc1OC)OCO5	label 1
O=C(NNc1nc2c(F)cccc2n2cccc12)c1cnccn1	label 0
CC(C)N1C(=O)/C(=C2\SC(=S)N(C(C)C)C2=O)SC1=S	label 0
CC1(C)CC(O)CCCCCCOc2c(CN)cccc2NC(=O)c2nc(cnc2N)-c2ccc(cc2)S1(=O)=O (stereo not given)	label 1

----------
# Tested on: NCI-H460 lung
# Assay Protocol: NCI-60 one-dose screen, 48 h (100 = growth as untreated, 0 = no growth, -100 = all killed)
# Measurement Parameters: 10 µM unless noted
This is part of a sample that, as a whole, favours compounds with a hit. Of some 83,000 tested, about 20% had one in any assay.
Catalogue of growth readings, one per entry.
Value Type: growth (%)

CCOc1cccc(-c2nc(N)nc(Nc3ccccc3SSc3ccccc3Nc3nc(N)nc(-c4cccc(OCC)c4)n3)n2)c1	35.6
CCOC(=O)c1cc(C(=O)c2ccc(OC)cc2)n2ccc(/C=C/c3cc[n+](CC(=O)c4ccc(OC)cc4)cc3)cc12	75.1
O=Cc1cc2ccccc2nc1Oc1ccc(C(F)(F)F)cc1	98.8
Cc1cc2cc3ccc(N(C)C)cc3nc2cc1N	-70.9
CCOC(=O)C1=C(C)NC(SCc2cc(=O)oc3ccc(F)cc23)=N[C@@H]1c1cccc2ccccc12	105

----------
# System: MDA-MB-231 breast
# Assay Protocol: NCI-60 one-dose screen, 48 h (100 = growth as untreated, 0 = no growth, -100 = all killed)
# Measurement Parameters: 10 µM unless noted
About 83,000 compounds went through this panel and 20% of them were active in at least one assay; those are over-represented in the sample as a whole.
Please mark Met if the recorded growth is equal to or greater than 40%, and Not met if it falls below.

COc1cc2oc(-c3cccc(C(=O)Nc4ccc(Br)cc4)c3)cc(=O)c2c(OC)c1OC	Not met
CC1(C)NCCC[C@]2(C)[C@H]3CC(=O)[C@H]4[C@@H]5C[C@](C)(CO)CC[C@]5(C)CC[C@@]4(C)[C@]3(C)CC[C@@H]12	Met
CCOC(=O)c1cc(C(=O)c2ccc(OC)cc2)n2ccc(/C=C/c3cc[n+](CC(=O)c4ccc(OC)cc4)cc3)cc12	Met
CCOC(=O)CCN(CC(C)C)C(=S)Nc1ccccc1	Met
Cn1c(-c2c(N)n(CCCN3CCOCC3)c3nc(C#N)c(C#N)nc23)nc2ccccc21	Met
O=C1c2ccc3c4c(ccc(c24)C(=O)N1CCCNCc1ccccc1Cl)C(=O)N(CCCNCc1ccccc1Cl)C3=O	Not met
CC(Sc1nc2ccccc2c(=O)n1CCc1ccc(S(N)(=O)=O)cc1)C(=O)Nc1ccc(Cl)cc1 (centres undefined)	Met
Cc1nc2sccn2c1-c1cn2ccsc2n1	Met
Cc1ccc(NC(C(=O)c2ccccc2)c2ccccc2)cc1 (centres undefined)	Met

----------
# System: SNB-75 CNS
# Assay Protocol: NCI-60 one-dose screen, 48 h (100 = growth as untreated, 0 = no growth, -100 = all killed)
# Measurement Parameters: 10 µM unless noted
# Protocol: Growth inhibition of the SNB-75 human tumor cell line is measured as a screen for anti-cancer activity. Cells are grown in 96 well plates and exposed to the test compound for 48 hours. Compounds are tested at a single concentration, which is 10^-5 M for most compounds. The reported endpoint is percent growth (GI% or GIPRCNT), where numbers from 0 - 100% represent growth inhibition, and numbers from -100% - 0 represent cell death. For example, a value of 40 represents 60% growth inhibition. […]
The panel holds about 83,000 compounds, 20% with a hit somewhere; the sample as a whole holds those more often.
growth values, listed per item
Value Type: growth (%)

c1ccc2c(-c3nccs3)c[nH]c2c1	90.7
O=C(/C(=C\c1ccc([N+](=O)[O-])cc1)S(=O)Cc1ccc(F)cc1)c1ccc(F)cc1 (centres undefined)	72.1
C/C=C(\C)C(=O)NC1=CC[C@@]2(C)C(=CCC3C2CC[C@@]2(C)C3CC[C@@H]2C(C)N(C)C)C1=O (some centres undefined)	42.3
Nc1c(S(=O)(=O)O)cc2c3c(cccc13)C(=O)OC2=O	79.2
Cc1cc(C)c(S(=O)(=O)Oc2ccccc2[N+](=O)[O-])c(C)c1	-18.4
CC(c1ccccc1)C(C(=O)c1ccccc1)c1ccccc1 (centres undefined)	63.9
CNCCn1c(=O)c2cc(OC)c(OC)cc2c2ccc3cc4c(cc3c21)OCO4	-0.403
CCOC(=O)Oc1c(OC)cc(C(=O)c2ccc(OC)c(OC(=O)CCl)c2OC)cc1OC	36.3
CCOC(=O)c1cc(C(=O)c2ccc(OC)c(OC)c2)n2c1ccc1ccccc12	48.5
N/C(=N\C(N)=N\c1nc2ccccc2s1)c1cnccn1	35.8
O=C(Cc1ccccc1)NNc1nc(Cl)nc(N2CCN(C(c3ccccc3)c3ccccc3)CC2)n1	96
COc1ccc(C(=O)Nc2cccc(C3CCc4c(cc(OC)c(OC)c4OC)O3)c2)cc1 (centres undefined)	26.3
N#CC1=C(N)Oc2c(ccc3ccccc23)C1c1ccccc1Cl (centres undefined)	13.3
O=C1Nc2cc(Cl)ccc2/C1=C\c1c(-c2ccc(F)cc2)nc2ccccn12	-16.9
COc1cc2c(=O)n(CCN(C)C)c3c4cc5c(cc4ccc3c2cc1OC)OCO5	17.8
C=C1C(=O)O[C@H]2[C@H]1CC/C(C(=O)NCCCCCNC(=O)/C1=C/CC[C@@]3(C)O[C@H]3[C@H]3OC(=O)C(=C)[C@@H]3CC1)=C\CC[C@@]1(C)O[C@@H]21	103
C=C(C)[C@@H]1CC[C@]2(C(=O)N3CCN(C)CC3)CC[C@]3(C)[C@H](CC[C@@H]4[C@@]5(C)CC[C@H](OCCC#N)C(C)(C)[C@@H]5CC[C@]43C)[C@@H]12	99.5
N#Cc1c(NC(=O)NCc2ccccc2)sc2c1CCCC2	27
COc1ccc(CCn2cncc2-c2c[nH]c3ccccc23)cc1	44.4

----------
# Test system: NCI-H522 lung
# Assay Protocol: NCI-60 one-dose screen, 48 h
# Measurement Parameters: 10 µM unless noted
About 83,000 compounds went through this panel and 20% of them were active in at least one assay; those are over-represented in the sample as a whole. Activity calls are given as the source filed them. How the source made its calls: active means growth percent below 10; inactive means the rest.
Outcomes: YES for active, NO for inactive

NNC(=O)c1ccc(-n2nc(-c3ccccc3)c3ccccc32)cc1	NO
Cc1nc(N)nc(N[C@@H](C)c2nc3cccc(NCc4ccc(C(=O)NO)cc4)c3c(=O)n2-c2ccccc2)n1	NO
COc1ccc(C(=O)c2cc(C)c(OC)c(C)c2)c(OC)c1N(C(=O)CCl)C(=O)CCl	YES
CC1=C(C(=O)/C=C/c2ccc(N(C)C)cc2)C(c2ccccc2)NC(=S)N1 (stereo not given)	NO
C=C1C(=O)O[C@H]2[C@H]1CC/C(CNC(=O)/C=C/c1ccccc1)=C\CC[C@@]1(C)O[C@@H]21	YES
O=C(CCN1CCCC1)c1ccc([N+](=O)[O-])cc1	YES
O=C(Cc1ccc(/C=C/C(=O)c2nccs2)cc1)Nc1ccccc1	NO
CCOC(=O)c1cc(C(=O)c2ccc(OC)cc2)n2ccc(/C=C/c3cc[n+](CC(=O)c4ccc(OC)cc4)cc3)cc12	NO
COc1ccc(C(=O)c2cc(OC)c(OC)c(OC)c2)cc1O	NO
COc1ccc(NC(N)=NCCCOc2ccc(F)cc2)cc1	NO
